Target desc: human TRPM8 (Homo sapiens, UniProt Q7Z2W7)
Construct: The full-length human TRPM8 gene was amplified from plasmid RC220615 (manufactured by Origene) using a PCR method
Sequence (Q7Z2W7 whole entry): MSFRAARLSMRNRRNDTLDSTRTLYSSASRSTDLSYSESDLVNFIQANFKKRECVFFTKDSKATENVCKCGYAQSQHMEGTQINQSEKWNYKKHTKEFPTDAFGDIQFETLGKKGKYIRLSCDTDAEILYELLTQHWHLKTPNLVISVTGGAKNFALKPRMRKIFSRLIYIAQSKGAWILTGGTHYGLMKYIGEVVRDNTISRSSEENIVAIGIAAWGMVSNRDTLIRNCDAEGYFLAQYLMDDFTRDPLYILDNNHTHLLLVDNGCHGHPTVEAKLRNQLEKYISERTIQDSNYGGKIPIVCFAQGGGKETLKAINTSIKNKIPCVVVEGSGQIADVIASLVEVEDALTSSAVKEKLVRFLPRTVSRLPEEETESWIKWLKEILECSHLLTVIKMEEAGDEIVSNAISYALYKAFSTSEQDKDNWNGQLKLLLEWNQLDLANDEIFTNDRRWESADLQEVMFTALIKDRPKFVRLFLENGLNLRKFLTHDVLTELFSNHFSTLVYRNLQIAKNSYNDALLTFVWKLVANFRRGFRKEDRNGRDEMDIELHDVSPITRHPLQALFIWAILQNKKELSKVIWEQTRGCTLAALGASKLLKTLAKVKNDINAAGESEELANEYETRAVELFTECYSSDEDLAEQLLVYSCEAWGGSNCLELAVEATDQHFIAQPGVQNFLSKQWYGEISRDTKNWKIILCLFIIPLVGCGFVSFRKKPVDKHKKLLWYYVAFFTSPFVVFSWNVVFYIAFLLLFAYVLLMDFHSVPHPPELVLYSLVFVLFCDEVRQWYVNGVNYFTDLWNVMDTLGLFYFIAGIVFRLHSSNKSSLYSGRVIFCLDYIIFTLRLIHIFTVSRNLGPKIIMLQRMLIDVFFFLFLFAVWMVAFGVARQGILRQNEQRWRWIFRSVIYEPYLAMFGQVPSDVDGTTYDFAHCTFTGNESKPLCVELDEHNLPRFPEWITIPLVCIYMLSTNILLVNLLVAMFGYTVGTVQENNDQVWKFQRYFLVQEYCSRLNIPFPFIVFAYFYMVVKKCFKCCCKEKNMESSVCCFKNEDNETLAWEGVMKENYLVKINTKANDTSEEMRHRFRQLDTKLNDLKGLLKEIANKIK
Assay comment: Evaluation of human TRPM8 activity (cool-feeling intensity), calcium fluorescence in stable expression cells
Condition notes: Fluo4-AM, 32° C., read-out: EC50 value in TRPM8 activation action
Protocol: It is common that a compound having a cooling effect such as menthol generally induces a cool-feeling by activating melastatin transient receptor potential channel 8 (TRPM8) as a cold stimulation receptor (for example, see J. Neurobiol. (2004), Vol. 61, PP. 3-12). Therefore, in order to evaluate the cool-feeling intensity, EC50 values of the exemplary compounds obtained in the Examples in TRPM8 activation actions were evaluated according to the following procedures. […]
I'd appreciate it if you could supply pEC50 values for the items below.
As a rule, pEC50 stands for the negative log10 of the concentration, concentration in M.

Q. Request body: readout pEC50, system human TRPM8 (Homo sapiens, UniProt Q7Z2W7), query CC(C)C1CCC(C)(C)CC1C(=O)NC[C@@H](O)c1ccccc1 (some centres unmarked) . Return the value.
A. 7.62

Q. Item CC(C)C1CCC(C)(C)CC1C(=O)NC[C@H](O)c1ccccc1 (some centres unmarked) with human TRPM8 (Homo sapiens, UniProt Q7Z2W7) - pEC50?
A. 7.13

Q. Quick check: pEC50 on human TRPM8 (Homo sapiens, UniProt Q7Z2W7), item CC(C)C1CCC(C)(C)CC1C(=O)NC[C@@H](C)c1ccccc1 (some centres unmarked) ?
A. 6.26

Q. Recorded pEC50 for COc1ccc(CCNC(=O)C2CC(C)(C)CCC2C(C)C)cc1OC (centres unmarked) with human TRPM8 (Homo sapiens, UniProt Q7Z2W7), please?
A. 6.39

Q. Given the entry CC(C)C1CCC(C)(C)CC1C(=O)NCCc1ccc(O)cc1 (centres unmarked) , what pEC50 was observed with human TRPM8 (Homo sapiens, UniProt Q7Z2W7)?
A. 7.53

Q. Param readout = pEC50; param system = human TRPM8 (Homo sapiens, UniProt Q7Z2W7); param query = CC(C)C1CCC(C)(C)CC1C(=O)NCCc1ccc(O)c(O)c1 (centres unmarked) ; response: value
A. 6.95

Q. Provide value of pEC50 for this record tested with human TRPM8 (Homo sapiens, UniProt Q7Z2W7): CC(C)C1CCC(C)(C)CC1C(=O)NCCc1ccccc1 (centres unmarked)
A. 7.30

Q. Could you share what pEC50 was measured for CC(CNC(=O)C1CC(C)(C)CCC1C(C)C)c1ccccc1 (centres unmarked) , tested on human TRPM8 (Homo sapiens, UniProt Q7Z2W7)?
A. 6.41

* * *

Assay comment: Sensory evaluation of 30 ppm aqueous solution by three flavorists
Format: in vivo, human
Condition notes: 30 ppm aqueous solution
Readout label: persistence: cool-feeling lasted for

Q. Value lookup for persistence: cool-feeling lasted for; key = CC(C)C1CCC(C)(C)CC1C(=O)NCC(O)c1ccccc1 (stereo not shown)
A. ≥ 60 min

Q. Quick one: persistence: cool-feeling lasted for of CC(C)C1CCC(C)(C)CC1C(=O)NC[C@@H](O)c1ccccc1 (stereo partly shown) ?
A. ≥ 90 min

Q. Entry CC(C)C1CCC(C)(C)CC1C(=O)NCC(=O)c1ccccc1 (stereo not shown) : reported persistence: cool-feeling lasted for = ?
A. ≥ 60 min

Q. Which persistence: cool-feeling lasted for is reported for this compound? CC(C)C1CCC(C)(C)CC1C(=O)NC[C@H](O)c1ccccc1 (stereo partly shown)
A. ≥ 60 min
